Target: IDE (Homo sapiens)
Sequence (P14735 whole entry): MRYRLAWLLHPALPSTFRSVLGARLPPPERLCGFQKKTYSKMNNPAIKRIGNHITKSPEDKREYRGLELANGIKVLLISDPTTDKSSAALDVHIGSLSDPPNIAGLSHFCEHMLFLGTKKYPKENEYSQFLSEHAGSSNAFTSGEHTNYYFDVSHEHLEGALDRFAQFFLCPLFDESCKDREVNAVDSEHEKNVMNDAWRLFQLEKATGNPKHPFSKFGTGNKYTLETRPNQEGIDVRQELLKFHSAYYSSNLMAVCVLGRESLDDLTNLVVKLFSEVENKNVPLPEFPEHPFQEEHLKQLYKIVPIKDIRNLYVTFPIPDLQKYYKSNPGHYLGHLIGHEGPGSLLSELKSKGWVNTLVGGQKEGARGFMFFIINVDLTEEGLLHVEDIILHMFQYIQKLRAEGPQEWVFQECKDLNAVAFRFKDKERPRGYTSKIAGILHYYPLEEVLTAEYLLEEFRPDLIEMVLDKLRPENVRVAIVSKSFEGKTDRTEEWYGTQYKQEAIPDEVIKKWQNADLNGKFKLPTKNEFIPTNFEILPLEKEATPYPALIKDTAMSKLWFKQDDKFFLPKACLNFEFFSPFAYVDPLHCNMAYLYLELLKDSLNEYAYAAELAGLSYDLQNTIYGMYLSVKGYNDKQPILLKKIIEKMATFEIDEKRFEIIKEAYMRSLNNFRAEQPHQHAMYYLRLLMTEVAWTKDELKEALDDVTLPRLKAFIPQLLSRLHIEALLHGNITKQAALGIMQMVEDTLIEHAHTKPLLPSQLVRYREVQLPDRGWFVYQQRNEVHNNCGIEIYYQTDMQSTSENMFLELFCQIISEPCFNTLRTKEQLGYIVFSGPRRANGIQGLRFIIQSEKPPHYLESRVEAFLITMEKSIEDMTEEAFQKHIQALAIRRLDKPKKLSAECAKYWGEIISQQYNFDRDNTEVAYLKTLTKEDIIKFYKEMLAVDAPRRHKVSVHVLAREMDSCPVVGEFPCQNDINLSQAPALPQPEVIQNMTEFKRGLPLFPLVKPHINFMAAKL
Test: insulin degradation, homogeneous time-resolved fluorescence-based assay
Type: biochemical
Conditions: read-out: IC50^app in vitro, insulin; insulin as substrate; n=4
Property: pIC50
# log scale: pIC50 equals minus log10 of the concentration in mol/L

Notebook: pull reported pIC50 for IDE (Homo sapiens), entry `O=c1c2cc(F)ccc2sn1-c1cc(S(=O)(=O)N2CCOCC2)ccc1N1CCOCC1`
7.09
